System: NALM-6 (B-Lymphoblastic Leukemia)
test: combination Emax (second highest fraction inhibited in the dose matrix, 72 h); higher = more inhibition; extreme values may be limits of the assay
readout-label: combination Emax

>>> meas_value("COc1nnc2ccc(N3CCC(c4ccc(OCCN5CCN(C)C(=O)[C@H]5C)cc4)CC3)nn12 [AZD5153] + C[C@@H]1COCCN1C2=NC(=NC(=C2)C3(CC3)[S@](=N)(=O)C)C4=C5C=CNC5=NC=C4 [AZD6738] (first compound max 1 µM, 7x7, partner max 10 µM)")
0.958
>>> meas_value("CC1(C)CCC(CN2CCN(c3ccc(C(=O)NS(=O)(=O)c4ccc(NCC5CCOCC5)c([N+](=O)[O-])c4)c(Oc4cnc5[nH]ccc5c4)c3)CC2)=C(c2ccc(Cl)cc2)C1 [Venetoclax] + C[C@@H](Nc1cc(F)cc(F)c1)c1cc(C(=O)N(C)C)cc2c(=O)cc(N3CCOCC3)oc12 [AZD8186] (first compound max 1 µM, 7x7, partner max 3 µM)")
0.866
>>> meas_value("CC1(C)CCC(CN2CCN(c3ccc(C(=O)NS(=O)(=O)c4ccc(NCC5CCOCC5)c([N+](=O)[O-])c4)c(Oc4cnc5[nH]ccc5c4)c3)CC2)=C(c2ccc(Cl)cc2)C1 [Venetoclax] + Cc1cc2ncnn2cc1Nc1ncc2c(n1)n(C1CCOCC1)c(=O)n2C [AZD7648] (first compound max 1 µM, 7x7, partner max 10 µM)")
0.789
